Quick reference: PBM binding z-score of the listed items.
# Test system: RARa homodimer (NR concentration 270 nM)
# Test method notes: PBM binding z-score (relative to random genomic background probes); higher = stronger binding; sequences stand for … in GC…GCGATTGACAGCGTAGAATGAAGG
Lab note: record the figure alone, no unit after it.

Sequence string	Study target	PBM binding z-score
ATCGAAAGGTAGACGAGGTGAGTATACACCGTTT	RARa homodimer (NR concentration 270 nM)	0.224
CCGACTGGGGCAAGGTTACCAAAACGCACAGCCA	RARa homodimer (NR concentration 270 nM)	-0.287
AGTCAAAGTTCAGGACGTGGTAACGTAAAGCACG	RARa homodimer (NR concentration 270 nM)	0.703
CAAACTAGGTCACGAAAGGTCAAACTCGAATGAC	RARa homodimer (NR concentration 270 nM)	4.28

// recorded PBM binding z-score for `TCAGACAGGTGAAGGTAACTGAGGTACGCAGTCG` : 0.545

// recorded PBM binding z-score for `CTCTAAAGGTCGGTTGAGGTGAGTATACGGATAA` : -0.146

// recorded PBM binding z-score for `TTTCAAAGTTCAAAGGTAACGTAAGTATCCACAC` : 1.45

// recorded PBM binding z-score for `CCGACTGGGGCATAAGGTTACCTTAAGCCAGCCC` : -0.764

// recorded PBM binding z-score for `CGTACTAGGTCAAGGACAGTGAATCTCCGCACGC` : 1.16

// recorded PBM binding z-score for `CGAACTAGGTCAAGGATAGTGAATCTCCGCACGC` : 0.921

// recorded PBM binding z-score for `ATATGTAGGTTAAGGGTCAGTCAGGTTGGTTCGC` : 2.65

// recorded PBM binding z-score for `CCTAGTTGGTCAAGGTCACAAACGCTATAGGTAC` : 2.34
